Hi there, I'd appreciate the recorded MIC for every entry that follows.
- Test system: Proteus mirabilis 470/1
- Assay Explanation: Minimum inhibitory concentration, urinary tract organisms (Example 13)
- Type: cell-based
- Settings: Pm 470/1, read-out: Minimum Inhibitory Concentration
Express it in µg/mL; write the number only.

Request: Reported MIC, compound "CCOC(=O)CNC(=O)Oc1c(Cl)cc(Cl)c2cccnc12" : ____
Result: 10

Request: # MIC lookup, item "CCOC(=O)CNC(=O)Oc1ccc([N+](=O)[O-])c2cccnc12"
Result: 10

Request: Value lookup for MIC; key = "CCOC(=O)CNC(=O)Oc1cccc2ccc(C)nc12"
Result: 250

Request: Requested read-out: MIC. Entry: "CCOC(=O)CNC(=O)Oc1c(Br)cc(Br)c2cccnc12"
Result: 25

Request: Which value of MIC has been reported for "CCOC(=O)CNC(=O)Oc1cccc2cccnc12" in the records?
Result: 75
